Cited source for all entries: patent US9161924B2

Structures can show the parent of a compound that is named as a salt.
Quantity Name: IC50 (nM)
// return numeric value only (unit: nM, not printed)

Missing value: IC50, human factor IXa (Homo sapiens (Human), UniProt P00740), entry N=C(N)c1ccc(NC(=O)C(O)c2cccc(-c3ccc(OC(F)(F)F)cc3)c2)cc1 (stereo not drawn) [Compound 9] . Fill in?
440

Missing value: IC50, human factor IXa (Homo sapiens (Human), UniProt P00740), entry Nc1nccc2cc(NC(=O)C(O)c3cccc(-c4ccc(OC(F)(F)F)cc4)c3)ccc12 (stereo not drawn) . Fill in?
760

Missing value: IC50, human factor IXa (Homo sapiens (Human), UniProt P00740), entry CC(C)(C)c1ccc(-c2cccc(C(O)C(=O)Nc3ccc4c(N)nccc4c3)c2)cc1 (stereo not drawn) [Compound 42, hydrochloride] . Fill in?
695

Missing value: IC50, human factor IXa (Homo sapiens (Human), UniProt P00740), entry CC(C)(C)c1ccc(-c2cccc(C(O)C(=O)Nc3ccc(C(=N)N)cc3)c2)cc1 (stereo not drawn) [Compound 37, hydrochloride] . Fill in?
160

Missing value: IC50, human factor IXa (Homo sapiens (Human), UniProt P00740), entry N=C(N)c1ccc(NC(=O)C(O)c2cccc(-c3ccc(OC(F)(F)F)cc3)c2)cc1 (stereo not drawn) [Compound 13] . Fill in?
450

Missing value: IC50, human factor IXa (Homo sapiens (Human), UniProt P00740), entry CC(C)(C)c1ccc(-c2cccc(C(O)C(=O)Nc3ccc(CN)cc3)c2)cc1 (stereo not drawn) [Compound 52, hydrochloride] . Fill in?
1450
